Every entry's value here was drawn from patent US11161908.

# Assayed System: T1, commercial, recombinant extracellular domain of human BAFF-R (human, UniProt Q96RJ3 1-78)
# T1 construct: extracellular domain
# Protocol Description: Biacore analysis; antibody as loading sample, recombinant human BAFF-R ECD as sample
Experimental Readout: koff (s⁻¹)
One number for each entry, in s⁻¹.

Binder: humanized C90 variant HC1 + LC3 (antibody, V domains shown, also called Humanized HC1 + LC3; Hu90 HC-1 with Hu90 LC-3) VH: QVQLQESGPGLVKPSQTLSLTCTVSGDSITSGYWNWIRQHPGKGLEYIGYISYSGSTYYNPSLKSRVTISRDTSKNQFSLKLSSVTAADTAVYYCASPNYPFYAMDYWGQGTLVTVSS VL: DIVMTQSPSSLSASVGDRVTITCRASESVDNYGISFMNWFQQKPGKAPKLLIYAASNLGSGVPSRFSGSGSGTDFTLTISSLQPEDFATYYCQQSKEVPWTFGQGTKVEIKR
Data Value: 0.0021

Field: next binder
Prompt line: State, in one line, measured koff of humanized C90 variant HC2 + LC2 (antibody, V domains shown, also called Hu90 HC-2 with Hu90 LC-2) VH: EVQLQESGPGLVKPSQTLSLTCTVSGDSITSGYWNWIRQHPGKGLEYIGYISYSGSTYYNPSLKSRVTISRDTSKNQYSLKLSSVTAADTAVYYCASPNYPFYAMDYWGQGTLVTVSS VL: DIVLTQSPATLSLSPGERATLSCRASESVDNYGISFMNWFQQKPGQAPRLLIYAASNRATGIPARFSGSGSGTDFTLTISSLEPEDFAVYYCQQSKEVPWTFGGGTKVEIKR
Response line: 0.0022
